Source listed as ChEMBL document CHEMBL3991601.

- system-tested: Glycogen synthase kinase-3 alpha (Homo sapiens, UniProt P49840); note: in the data inactive means no Kd found up to 30 µM
- Sequence (P49840 whole entry): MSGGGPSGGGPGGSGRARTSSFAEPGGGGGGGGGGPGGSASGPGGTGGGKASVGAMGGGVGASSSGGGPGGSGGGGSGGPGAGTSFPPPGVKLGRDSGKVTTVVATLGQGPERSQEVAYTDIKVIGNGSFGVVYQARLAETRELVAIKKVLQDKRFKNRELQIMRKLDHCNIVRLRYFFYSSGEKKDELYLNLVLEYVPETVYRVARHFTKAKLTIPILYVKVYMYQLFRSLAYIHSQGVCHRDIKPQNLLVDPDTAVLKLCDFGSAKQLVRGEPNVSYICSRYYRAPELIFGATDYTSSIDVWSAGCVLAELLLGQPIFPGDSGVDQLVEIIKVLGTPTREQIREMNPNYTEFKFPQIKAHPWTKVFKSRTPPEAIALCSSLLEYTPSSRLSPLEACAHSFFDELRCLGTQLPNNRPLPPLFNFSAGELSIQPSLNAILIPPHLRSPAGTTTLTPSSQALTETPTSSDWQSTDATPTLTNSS
Activity calls are given as the source filed them.
Outcome field: choose from True (active), False (inactive)

q: Field: outcome | Entry: COC(=O)N[C@@H](C)CNc1nccc(-c2cn(C(C)C)nc2-c2cc(Cl)cc(NS(C)(=O)=O)c2F)n1
a: True

q: Any idea what this test logged for CO[C@H]1C[C@@H]2CC[C@@H](C)[C@@](O)(O2)C(=O)C(=O)N2CCCC[C@H]2C(=O)O[C@H]([C@H](C)C[C@@H]2CC[C@@H](OCCO)[C@H](OC)C2)CC(=O)[C@H](C)/C=C(\C)[C@@H](O)[C@@H](OC)C(=O)[C@H](C)C[C@H](C)/C=C/C=C/C=C/1C ?
a: False

q: Answer briefly: the call reported for CC[C@H](Nc1ncnc2[nH]cnc12)c1nc2cccc(F)c2c(=O)n1-c1ccccc1 in this assay.
a: False

====

- system-tested: Serine/threonine-protein kinase 3 (Homo sapiens); note: in the data inactive means no Kd found up to 30 µM
- Sequence (Q13188 whole entry): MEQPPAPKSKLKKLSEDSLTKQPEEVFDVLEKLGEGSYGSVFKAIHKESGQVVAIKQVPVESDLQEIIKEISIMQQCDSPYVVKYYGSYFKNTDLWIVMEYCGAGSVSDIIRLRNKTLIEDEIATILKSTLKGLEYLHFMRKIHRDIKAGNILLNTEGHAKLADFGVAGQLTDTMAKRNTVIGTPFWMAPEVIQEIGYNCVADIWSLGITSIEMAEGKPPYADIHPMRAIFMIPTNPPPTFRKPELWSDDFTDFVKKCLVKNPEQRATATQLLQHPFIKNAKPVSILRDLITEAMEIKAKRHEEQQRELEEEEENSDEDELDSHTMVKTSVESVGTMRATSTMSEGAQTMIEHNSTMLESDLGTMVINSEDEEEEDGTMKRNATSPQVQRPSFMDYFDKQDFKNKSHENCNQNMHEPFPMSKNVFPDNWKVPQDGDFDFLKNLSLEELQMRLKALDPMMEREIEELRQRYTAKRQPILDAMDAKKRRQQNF
Calls of active or inactive are those of the source.
Respond only with the outcome that fits, drawn from active, inactive

q: // param item: Cc1ccc(NC(=O)c2ccc(CN3CC[C@H](N(C)C)C3)c(C(F)(F)F)c2)cc1Nc1nccc(-c2cncnc2)n1 [BAFETINIB] ; yields the recorded call
a: inactive

q: Outcome logged for COC(=O)[C@@]1(O)C[C@H]2O[C@]1(C)n1c3ccccc3c3c4c(c5c6ccccc6n2c5c31)C(=O)NC4 [K-252A] in this assay:
a: active

q: Assay outcome for CCS(=O)(=O)N1CC(CC#N)(n2cc(-c3ncnc4[nH]ccc34)cn2)C1 [BARICITINIB] : what was it?
a: inactive

q: For Cn1cc(-c2ccc(F)c(C(F)(F)F)c2)nc1C1CCN(c2ncnc3[nH]ncc23)CC1 [LY-2584702] , what call appears in the results of this test?
a: inactive

q: GET /call?item= CCn1c(=O)c(-c2cc[nH]n2)cc2c(C)nc(N)nc21 [VOXTALISIB] returns the recorded outcome of this test.
a: inactive

q: Called result for CNC(=O)c1ccc(C)c(-n2c(C)cc(OCc3ccc(F)cc3F)c(Br)c2=O)c1 [PH-797804]
a: inactive

q: Can you look up the reported call for CC[C@@H]1C(=O)N(C)c2cnc(Nc3ccc(C(=O)N[C@H]4CC[C@H](N5CCN(CC6CC6)CC5)CC4)cc3OC)nc2N1C(C)C [VOLASERTIB] for me?
a: inactive

q: Please share the test call associated with CN1N=C(N)c2cn([C@@H]3O[C@H](COP(=O)(O)O)[C@@H](O)[C@H]3O)c3ncnc1c23 [TRICIRIBINE PHOSPHATE] .
a: inactive

q: Status in this test for CNC(=O)CN1CCC(Oc2cc3c(Nc4cccc(Cl)c4F)ncnc3cc2OC)CC1 [SAPITINIB] ?
a: inactive

q: Just curious, what result did CCN1CCN(Cc2ccc(-c3cc4c(N[C@H](C)c5ccccc5)ncnc4[nH]3)cc2)CC1 [AEE-788] get here?
a: inactive

q: Which outcome was assigned to CN(C)C(=O)c1cc2cnc(Nc3ccc(N4CCNCC4)cn3)nc2n1C1CCCC1 [RIBOCICLIB] in this test?
a: inactive

q: Outcome? CNC(=O)c1ccc(-c2cnc3ncc(Cc4ccc5ncccc5c4)n3n2)cc1F [CAPMATINIB]
a: inactive

q: Which result was noted for this compound in the test: CNS(=O)(=O)Nc1nccc(Cc2c(C)c3ccc(Oc4ncccn4)cc3oc2=O)c1F [AVUTOMETINIB]
a: inactive

q: Assay result, entry O=C1NC(=O)/C(=C/c2ccc3nccc(-c4ccncc4)c3c2)S1 [GSK-1059615] — outcome?
a: inactive

q: Called result for CC(=O)Nc1cccc(-n2c(=O)n(C3CC3)c(=O)c3c(Nc4ccc(I)cc4F)n(C)c(=O)c(C)c32)c1 [TRAMETINIB]
a: inactive

q: Can you look up the reported call for Cc1cc2c(F)c(Oc3ncnn4cc(OC[C@@H](C)OC(=O)[C@H](C)N)c(C)c34)ccc2[nH]1 [BRIVANIB ALANINATE] for me?
a: inactive

====

- system-tested: Phosphatidylinositol 5-phosphate 4-kinase type-2 gamma (Homo sapiens); note: in the data inactive means no Kd found up to 30 µM
- Sequence (Q8TBX8 whole entry): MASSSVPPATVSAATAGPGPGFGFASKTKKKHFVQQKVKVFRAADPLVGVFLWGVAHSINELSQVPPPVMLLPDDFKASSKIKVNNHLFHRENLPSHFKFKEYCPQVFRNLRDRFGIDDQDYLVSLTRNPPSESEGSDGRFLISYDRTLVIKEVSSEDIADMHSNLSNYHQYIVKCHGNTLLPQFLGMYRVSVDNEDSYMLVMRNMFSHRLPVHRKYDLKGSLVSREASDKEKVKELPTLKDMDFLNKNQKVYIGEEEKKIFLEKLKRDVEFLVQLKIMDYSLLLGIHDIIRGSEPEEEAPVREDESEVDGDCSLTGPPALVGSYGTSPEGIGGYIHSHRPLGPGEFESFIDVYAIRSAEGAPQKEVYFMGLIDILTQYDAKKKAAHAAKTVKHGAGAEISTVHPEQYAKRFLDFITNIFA
Activity calls are given as the source filed them.
API: response.call in label 1 = active, label 0 = inactive

q: Recorded test call requested for CCn1c(=O)c(-c2cc[nH]n2)cc2c(C)nc(N)nc21
a: label 0

q: GET /call?item= CC[C@@H]1C(=O)N(C)c2cnc(Nc3ccc(C(=O)N[C@H]4CC[C@H](N5CCN(CC6CC6)CC5)CC4)cc3OC)nc2N1C(C)C returns the recorded outcome of this test.
a: label 0

q: Can you look up the reported call for O=C(O)[C@]1(Cc2cccc(Nc3nccs3)n2)CC[C@@H](Oc2cccc(Cl)c2F)CC1 for me?
a: label 0

q: Short answer needed: outcome of this test for COc1cc2nccc(Oc3ccc(NC(=O)Nc4cc(C)on4)c(Cl)c3)c2cc1OC ?
a: label 0

q: So what was the verdict on Cc1c(F)cc(C(=O)NC2CC2)cc1-c1ccc(C(=O)NCC(C)(C)C)cn1 in this test?
a: label 0

q: Called result for C=CC(=O)N1CCC(Oc2cc3c(Nc4ccc(Cl)c(Cl)c4F)ncnc3cc2OC)CC1
a: label 0

q: // outcome(item) with item = CN1CCC(COc2cnc(-c3cccc(Cn4nc(-c5cccc(C#N)c5)ccc4=O)c3)nc2)CC1
a: label 0

q: Dear colleague, could you share the recorded outcome for Cc1nc(N)sc1-c1ccnc(Nc2ccc(N3CCOCC3)cc2)n1 when you have a moment?
a: label 1

====

- system-tested: Mitotic checkpoint serine/threonine-protein kinase BUB1 (Homo sapiens); note: in the data inactive means no Kd found up to 30 µM
- Sequence (O43683 whole entry): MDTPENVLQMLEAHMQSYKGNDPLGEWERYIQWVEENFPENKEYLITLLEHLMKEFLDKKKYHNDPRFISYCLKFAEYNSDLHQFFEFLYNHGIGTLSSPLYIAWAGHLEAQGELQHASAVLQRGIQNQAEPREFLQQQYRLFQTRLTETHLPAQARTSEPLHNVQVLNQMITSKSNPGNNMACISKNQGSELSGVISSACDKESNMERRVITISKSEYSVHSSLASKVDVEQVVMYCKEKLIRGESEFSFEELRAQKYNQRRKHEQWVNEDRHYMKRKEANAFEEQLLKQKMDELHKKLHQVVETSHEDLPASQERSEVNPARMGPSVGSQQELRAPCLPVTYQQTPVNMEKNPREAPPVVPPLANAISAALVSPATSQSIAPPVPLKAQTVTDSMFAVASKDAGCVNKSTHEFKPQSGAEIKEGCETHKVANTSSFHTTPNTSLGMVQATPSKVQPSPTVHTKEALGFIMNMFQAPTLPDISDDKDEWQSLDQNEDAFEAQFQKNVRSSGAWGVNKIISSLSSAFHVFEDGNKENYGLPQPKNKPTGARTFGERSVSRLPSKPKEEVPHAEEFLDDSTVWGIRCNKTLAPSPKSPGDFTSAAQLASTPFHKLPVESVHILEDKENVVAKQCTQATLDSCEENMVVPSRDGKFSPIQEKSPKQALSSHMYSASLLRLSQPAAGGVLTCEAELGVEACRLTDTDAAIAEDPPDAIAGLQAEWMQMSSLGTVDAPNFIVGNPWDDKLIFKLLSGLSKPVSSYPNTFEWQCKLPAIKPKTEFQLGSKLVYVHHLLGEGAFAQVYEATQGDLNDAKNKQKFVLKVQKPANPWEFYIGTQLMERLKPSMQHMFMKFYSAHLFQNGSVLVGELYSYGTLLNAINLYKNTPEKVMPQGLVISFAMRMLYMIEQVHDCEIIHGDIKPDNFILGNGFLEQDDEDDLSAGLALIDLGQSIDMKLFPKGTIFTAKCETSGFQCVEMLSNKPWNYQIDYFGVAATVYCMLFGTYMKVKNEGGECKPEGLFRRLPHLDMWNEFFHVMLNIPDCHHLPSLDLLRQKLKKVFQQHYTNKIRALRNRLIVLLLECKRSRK
The source made the active and inactive calls.
Allowed answers: active, inactive

q: Hi team, can someone confirm the assay call for CNC(=O)c1ccc(-c2cnc3ncc(Cc4ccc5ncccc5c4)n3n2)cc1F ?
a: inactive

q: GET /call?item= CNS(=O)(=O)Nc1nccc(Cc2c(C)c3ccc(Oc4ncccn4)cc3oc2=O)c1F returns the recorded outcome of this test.
a: inactive

q: In this assay, the call recorded for Cc1cn(-c2cc(NC(=O)c3ccc(C)c(Nc4nccc(-c5cccnc5)n4)c3)cc(C(F)(F)F)c2)cn1 was what?
a: inactive

q: Look up the recorded call for O=C(Nc1ccc(-c2ccnc(Nc3ccc(N4CCOCC4)cc3)n2)cc1)C1CCCN1 (stereo not drawn) in this test.
a: active

q: Give the logged outcome of this assay for the following molecule: CC[C@H](Nc1ncnc2[nH]cnc12)c1nc2cccc(F)c2c(=O)n1-c1ccccc1
a: inactive

q: Any idea what this test logged for CNC(=O)c1cc(Oc2ccc(NC(=O)Nc3ccc(Cl)c(C(F)(F)F)c3)c(F)c2)ccn1 ?
a: inactive

q: Outcome? O=C(O)[C@]1(Cc2cccc(Nc3nccs3)n2)CC[C@@H](Oc2cccc(Cl)c2F)CC1
a: inactive

q: How did this test come out for Cn1cc(-c2ccc(F)c(C(F)(F)F)c2)nc1C1CCN(c2ncnc3[nH]ncc23)CC1 ?
a: inactive

====

- system-tested: Tyrosine-protein kinase JAK2 (Homo sapiens); note: in the data inactive means no Kd found up to 30 µM
- Sequence (O60674 whole entry): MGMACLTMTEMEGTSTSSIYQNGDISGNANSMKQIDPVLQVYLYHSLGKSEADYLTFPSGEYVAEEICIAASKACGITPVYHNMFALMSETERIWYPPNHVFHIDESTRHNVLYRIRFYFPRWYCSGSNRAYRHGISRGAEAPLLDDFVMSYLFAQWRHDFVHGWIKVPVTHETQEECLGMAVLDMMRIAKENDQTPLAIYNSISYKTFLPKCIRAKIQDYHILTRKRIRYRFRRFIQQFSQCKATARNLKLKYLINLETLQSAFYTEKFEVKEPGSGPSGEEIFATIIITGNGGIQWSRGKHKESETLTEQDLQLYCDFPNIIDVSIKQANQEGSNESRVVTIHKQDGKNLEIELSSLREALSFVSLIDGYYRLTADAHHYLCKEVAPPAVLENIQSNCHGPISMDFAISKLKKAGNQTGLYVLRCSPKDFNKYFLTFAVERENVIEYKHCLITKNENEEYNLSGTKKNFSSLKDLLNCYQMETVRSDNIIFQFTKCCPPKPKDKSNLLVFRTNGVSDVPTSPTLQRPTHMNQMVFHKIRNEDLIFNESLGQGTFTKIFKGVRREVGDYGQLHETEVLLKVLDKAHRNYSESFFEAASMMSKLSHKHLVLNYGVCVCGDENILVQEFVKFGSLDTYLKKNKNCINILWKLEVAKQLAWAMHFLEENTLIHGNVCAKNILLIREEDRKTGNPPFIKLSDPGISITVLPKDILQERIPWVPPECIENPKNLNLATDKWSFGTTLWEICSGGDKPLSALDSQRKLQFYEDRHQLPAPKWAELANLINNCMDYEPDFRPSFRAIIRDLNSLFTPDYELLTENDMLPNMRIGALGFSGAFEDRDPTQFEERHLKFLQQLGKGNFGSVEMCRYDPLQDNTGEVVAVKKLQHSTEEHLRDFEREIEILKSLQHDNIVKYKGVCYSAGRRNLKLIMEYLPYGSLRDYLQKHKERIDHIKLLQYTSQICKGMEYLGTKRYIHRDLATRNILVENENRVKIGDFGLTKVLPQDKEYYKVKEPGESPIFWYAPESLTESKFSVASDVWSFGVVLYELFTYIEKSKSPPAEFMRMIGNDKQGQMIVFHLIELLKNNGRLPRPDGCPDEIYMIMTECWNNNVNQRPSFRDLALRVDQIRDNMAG
Active and inactive are the calls of the source.
Give your call using only these classes: class 1 = active, class 0 = inactive

q: Kindly provide the recorded test outcome for the following compound: CC[C@@H]1C(=O)N(C)c2cnc(Nc3ccc(C(=O)N[C@H]4CC[C@H](N5CCN(CC6CC6)CC5)CC4)cc3OC)nc2N1C(C)C [VOLASERTIB]
a: class 0

q: Could you kindly confirm the outcome this assay logged for COc1cc2nccc(Oc3ccc(NC(=O)NC4CC4)c(Cl)c3)c2cc1C(N)=O [LENVATINIB] ?
a: class 0

q: Answer briefly: the call reported for O=C(O)[C@]1(Cc2cccc(Nc3nccs3)n2)CC[C@@H](Oc2cccc(Cl)c2F)CC1 [MK-5108] in this assay.
a: class 1

====

- system-tested: Cyclin-G-associated kinase (Homo sapiens); note: in the data inactive means no Kd found up to 30 µM
- Sequence (O14976 whole entry): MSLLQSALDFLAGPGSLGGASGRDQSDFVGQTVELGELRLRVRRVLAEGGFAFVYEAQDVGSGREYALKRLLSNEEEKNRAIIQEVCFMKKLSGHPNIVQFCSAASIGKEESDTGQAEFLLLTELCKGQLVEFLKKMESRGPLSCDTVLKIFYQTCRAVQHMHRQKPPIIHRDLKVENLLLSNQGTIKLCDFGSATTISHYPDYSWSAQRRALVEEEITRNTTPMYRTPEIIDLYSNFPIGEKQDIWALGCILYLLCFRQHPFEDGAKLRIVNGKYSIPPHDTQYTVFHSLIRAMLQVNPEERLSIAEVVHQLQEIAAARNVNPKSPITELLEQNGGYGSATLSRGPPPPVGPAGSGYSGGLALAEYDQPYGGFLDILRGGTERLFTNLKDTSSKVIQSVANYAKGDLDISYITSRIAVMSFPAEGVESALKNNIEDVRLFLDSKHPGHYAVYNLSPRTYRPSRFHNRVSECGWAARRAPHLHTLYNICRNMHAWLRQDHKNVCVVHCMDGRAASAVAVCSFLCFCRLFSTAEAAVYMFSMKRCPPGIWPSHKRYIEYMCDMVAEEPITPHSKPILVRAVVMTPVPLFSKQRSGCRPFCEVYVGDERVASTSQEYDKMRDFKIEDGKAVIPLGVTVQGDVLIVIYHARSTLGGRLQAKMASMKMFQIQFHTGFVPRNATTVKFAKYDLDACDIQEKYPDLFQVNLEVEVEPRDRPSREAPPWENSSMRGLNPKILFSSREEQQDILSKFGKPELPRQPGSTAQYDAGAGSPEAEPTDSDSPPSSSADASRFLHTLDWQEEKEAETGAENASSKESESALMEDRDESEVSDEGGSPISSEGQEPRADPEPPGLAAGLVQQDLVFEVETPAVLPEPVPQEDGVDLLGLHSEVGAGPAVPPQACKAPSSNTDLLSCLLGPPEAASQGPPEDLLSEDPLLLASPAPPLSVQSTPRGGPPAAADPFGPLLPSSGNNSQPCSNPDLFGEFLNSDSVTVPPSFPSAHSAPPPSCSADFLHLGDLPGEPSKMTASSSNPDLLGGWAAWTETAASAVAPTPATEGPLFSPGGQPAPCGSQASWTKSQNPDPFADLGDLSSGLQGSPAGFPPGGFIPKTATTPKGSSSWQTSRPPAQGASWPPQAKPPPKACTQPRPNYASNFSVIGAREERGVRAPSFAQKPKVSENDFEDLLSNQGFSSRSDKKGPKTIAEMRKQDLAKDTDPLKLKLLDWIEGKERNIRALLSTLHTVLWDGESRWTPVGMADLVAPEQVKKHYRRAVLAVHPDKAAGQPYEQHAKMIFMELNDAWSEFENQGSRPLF
Active and inactive are the calls of the source.
Select the correct class. Options are active, inactive and nothing else.

q: # fetch the recorded call for CN1CCC(CNc2ccc3ncc(-c4cccc(OC(F)(F)F)c4)n3n2)CC1 here
a: active

q: Field: outcome | Entry: CN1CCC(COc2cnc(-c3cccc(Cn4nc(-c5cccc(C#N)c5)ccc4=O)c3)nc2)CC1
a: inactive

q: Which outcome was assigned to CC(C)Nc1cc(-c2c[nH]c(C(=O)N[C@H](CO)c3cccc(Cl)c3)c2)c(Cl)cn1 in this test?
a: inactive

q: # lookup: test call for C[C@@H]1CN(Cc2ccc(F)cc2)[C@@H](C)CN1C(=O)c1cc2c(C(=O)C(=O)N(C)C)cn(C)c2cc1Cl
a: inactive

q: State the result this test recorded for CNC(=O)CN1CCC(Oc2cc3c(Nc4cccc(Cl)c4F)ncnc3cc2OC)CC1 .
a: active

q: Per the records of this test, what outcome belongs to O=C(O)[C@]1(Cc2cccc(Nc3nccs3)n2)CC[C@@H](Oc2cccc(Cl)c2F)CC1 ?
a: inactive

q: Test call for this compound, please: O=C(c1ccc(F)c(F)c1Nc1ccc(I)cc1F)N1CC(O)([C@@H]2CCCCN2)C1
a: inactive

q: Entry Cc1cc2c(F)c(Oc3ncnn4cc(OC[C@@H](C)OC(=O)[C@H](C)N)c(C)c34)ccc2[nH]1 [BRIVANIB ALANINATE] : call = ?
a: inactive
